These entries and their values trace back to paper PMC10535864.

# assayed_system: BRD4 (BD2) (Homo sapiens, UniProt O60885)
# Construct: BRD4 (BD2) should be thawed on ice; purchased
# assay_remarks: BRD4 inhibitory activity assay (AlphaLISA Bromodomain Assay)
# Type: binding
# protocol_conditions: BRD4 Lab Report; conc 0.1 (unit not given)
measured_endpoint: %inh (%)
State the answer as a number, implicitly in %.

Example cases with answers are listed next.
| compound_structure_string | %inh (%) |
| --- | --- |
| Nc1c(/N=C(/CBr)c2ccccc2)c(=O)[nH]c(=O)n1Cc1ccccc1 | 58 |
| CCn1c(N)c(/N=C(/CBr)c2ccc(OC)cc2)c(=O)[nH]c1=O | 49 |
| COc1ccc(/C(CBr)=N\c2c(N)n(Cc3ccccc3Cl)c(=O)[nH]c2=O)cc1 | 46 |

Asked: # lookup: %inh of Cn1c(SCC(=O)c2ccccc2)nc(=O)c(/N=C(/CBr)c2ccccc2)c1N
Given back: 56

====

# assay_remarks: MTT cytotoxicity assay, normal Vero cells;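 also: monolayers exposed to two-fold dilutions in 2% serum medium, MTT added for 4 h, formazan in DMSO read at 560 nm minus 620 nm, controls given medium alone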
# Assay type: cell-based
# protocol_conditions: African green monkey, normal Vero cells; Vero; MTT; 10 uM
measured_endpoint: viability at 10 µM (%)
Provide only the numeric value, understood in %.

Asked: Param item = CCn1c(N)c(/N=C(/CBr)c2ccc(OC)cc2)c(=O)[nH]c1=O ; retrieve measured viability at 10 µM.
Given back: 4.59

Asked: Try this compound next: COc1ccc(/C(CBr)=N\c2c(N)n(Cc3ccccc3Cl)c(=O)[nH]c2=O)cc1
Given back: 6.15

Asked: And Nc1c(/N=C(/CBr)c2ccccc2)c(=O)[nH]c(=O)n1Cc1ccccc1 ?
Given back: 2.28

Asked: Moving on to Cn1c(SCC(=O)c2ccccc2)nc(=O)c(/N=C(/CBr)c2ccccc2)c1N
Given back: 10.5

Asked: Next entry: CN(Cc1cnc2nc(N)nc(N)c2n1)c1ccc(C(=O)N[C@@H](CCC(=O)O)C(=O)O)cc1 [Methotrexate, reference compound]
Given back: 50.2

====

# assayed_system: BRD4 (BD2) (Homo sapiens, UniProt O60885)
# Construct: BRD4 (BD2) should be thawed on ice; purchased
# assay_remarks: BRD4 inhibitory activity assay (AlphaLISA Bromodomain Assay);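 also: in vitro inhibition of recombinant BRD4 BD2 bromodomain binding to a BET bromodomain ligand, read by AlphaLISA proximity signal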
# Assay type: binding
# protocol_conditions: BRD4 Lab Report; conc 10 (unit not given)
measured_endpoint: %inh
# output: numeric value plus its unit

| molecule | %inh |
| --- | --- |
| COc1ccc(/C(CBr)=N\c2c(N)n(Cc3ccccc3Cl)c(=O)[nH]c2=O)cc1 [Compound 6b] | 83% |
| CCn1c(N)c(/N=C(/CBr)c2ccc(OC)cc2)c(=O)[nH]c1=O [Compound 6a] | 88% |
| Nc1c(/N=C(/CBr)c2ccccc2)c(=O)[nH]c(=O)n1Cc1ccccc1 [Compound 4] | 91% |

Asked: Please give the measured %inh for this molecule: Cn1c(SCC(=O)c2ccccc2)nc(=O)c(/N=C(/CBr)c2ccccc2)c1N [Compound 7]
Given back: 89%

====

# Test system: MDA-MB-231 breast cancer cells
# assay_remarks: MTT cytotoxicity assay, MDA-MB-231
# Assay type: cell-based
# protocol_conditions: MDA-MB-231; MTT; 1.25 uM
Listed here are compounds together with their documented Toxicity %.
Answer format: value, then unit.

| compound | result |
| --- | --- |
| CN(Cc1cnc2nc(N)nc(N)c2n1)c1ccc(C(=O)N[C@@H](CCC(=O)O)C(=O)O)cc1 [Methotrexate, reference compound] | 18.45% |

Asked: Any idea what its Toxicity % is? The compound is CCn1c(N)c(/N=C(/CBr)c2ccc(OC)cc2)c(=O)[nH]c1=O [Compound 6a]
Given back: 72.92%

Asked: Further, for Nc1c(/N=C(/CBr)c2ccc([N+](=O)[O-])cc2)c(=O)[nH]c(=O)n1Cc1ccccc1Cl [Compound 5c] ?
Given back: 3.901%

Asked: Again, but for CCn1c(N)c(/N=C(/CBr)c2ccc([N+](=O)[O-])cc2)c(=O)[nH]c1=O [Compound 5a]
Given back: 8.821%

Asked: Then what about the compound Cn1c(=S)[nH]c(=O)c2nc(-c3ccccc3)c(-c3ccccc3)nc21 [Compound 10] ?
Given back: 1.197%

Asked: Repeat for the following compound: Cn1c(SCC(=O)c2ccccc2)nc(=O)c(/N=C(/CBr)c2ccccc2)c1N [Compound 7]
Given back: 83.51%

Asked: Can you check COc1ccc(-c2cnc3c(n2)c(=O)[nH]c(=O)n3Cc2ccccc2)cc1 [Compound 9] next?
Given back: 13.79%

Asked: // query: Cn1c(SCC(=O)c2ccc([N+](=O)[O-])cc2)nc(=O)c(/N=C(/CBr)c2ccc([N+](=O)[O-])cc2)c1N [Compound 8]
Given back: 16.18%

Asked: // same read-out, input: Nc1c(/N=C(/CBr)c2ccc([N+](=O)[O-])cc2)c(=O)[nH]c(=O)n1Cc1ccccc1 [Compound 5b]
Given back: 15.34%

Asked: Check COc1ccc(/C(CBr)=N\c2c(N)n(Cc3ccccc3Cl)c(=O)[nH]c2=O)cc1 [Compound 6b] too.
Given back: 89.85%

Asked: Also check Nc1c(/N=C(/CBr)c2ccccc2)c(=O)[nH]c(=O)n1Cc1ccccc1 [Compound 4]
Given back: 92.86%
